These measurements were taken from the NIST ThermoML archive (doi:10.1016/j.jct.2013.06.020).

# conditionSummary: 298.15 K; 101.33 kPa; Liquid; Vibrating tube method
reportedProperty: mass density (kg/m3)

molecule	unitInfo	measuredValue
OCC1CCCO1 (stereo unspecified) [2-tetrahydrofurylmethanol]	kg/m3	1050.75
CCOC(=O)CCC(C)=O [ethyl levulinate]	kg/m3	1007.54
COC(=O)C(C)O (stereo unspecified) [methyl 2-hydroxypropanoate]	kg/m3	1087.43
COC(=O)CCC(C)=O [methyl levulinate]	kg/m3	1045.4
OCc1ccco1 [2-hydroxymethylfuran]	kg/m3	1130.27
Cc1ccc(C=O)o1	kg/m3	1103.2
CCCCOC(=O)CCC(C)=O [butyl levulinate]	kg/m3	969.935
O=Cc1ccco1	kg/m3	1154.81
CCOC(=O)C(C)O (racemic) [DL-ethyl lactate]	kg/m3	1028.37
CCCCOC(=O)C(C)O (stereo unspecified) [butyl 2-hydroxypropanoate]	kg/m3	977.283
C=CC(=O)OC [methyl propenoate]	kg/m3	949.174

---

# conditionSummary: 298.15 K; 101.33 kPa; Liquid; Sing-around technique in a fixed-path interferometer
reportedProperty: speed of sound (m/s)

compound	speed of sound / m/s
OCc1ccco1 [2-hydroxymethylfuran]	1449.8
CCOC(=O)CCC(C)=O [ethyl levulinate]	1351.2
C=CC(=O)OC [methyl propenoate]	1169
Cc1ccc(C=O)o1	1447
CCCCOC(=O)CCC(C)=O [butyl levulinate]	1341.3
O=Cc1ccco1	1440.2
CCCCOC(=O)C(C)O (stereo unspecified) [butyl 2-hydroxypropanoate]	1285
CCOC(=O)C(C)O (racemic) [DL-ethyl lactate]	1279.7
COC(=O)C(C)O (stereo unspecified) [methyl 2-hydroxypropanoate]	1338.8
OCC1CCCO1 (stereo unspecified) [2-tetrahydrofurylmethanol]	1485.2
COC(=O)CCC(C)=O [methyl levulinate]	1386.2
